protocol-notes: Cmin in healthy human at 10 mg/kg, iv once daily for 3 days measured at 24 after start of infusion
Type: ADME, organism-based
Design: dose 10 mg/kg, route intravenous
test-context: in vivo, read-out: Cmin
measured-metric: concentration at 72 h (ng/mL)
Field format: number, assumed ng/mL, no unit text.

input: Provide one value: measured concentration at 72 h of `CCCCCCCCCCNCCN[C@@]1(C)C[C@H](O[C@H]2[C@H](Oc3c4cc5cc3Oc3ccc(cc3Cl)[C@@H](O)[C@@H](NC(=O)[C@@H](CC(C)C)NC)C(=O)N[C@@H](CC(N)=O)C(=O)N[C@H]5C(=O)N[C@H]3C(=O)N[C@H](C(=O)N[C@H](C(=O)O)c5cc(O)c(CNCP(=O)(O)O)c(O)c5-c5cc3ccc5O)[C@H](O)c3ccc(c(Cl)c3)O4)O[C@H](CO)[C@@H](O)[C@@H]2O)O[C@@H](C)[C@H]1O`
output: 8110
